Cited source: ChEMBL document CHEMBL4888484

Below is a list of entries, each paired with its recorded IC50 value.
- Tested on: Plasmodium falciparum
- method-notes: Hit confirmation in dose-response curve in NF54 pLDH assay, at 72h
- Assay type: functional, organism-based
- Design: timepoint 72 hour
- experimental-setup: NF54, Erythrocyte
// units = µM; emit number, no label

# compound, endpoint-value
measured = [
    ("N#Cc1c(NC(=O)Nc2cn3ccccc3c2C#N)cn2ccccc12", 1.35),
    ("Cc1ccc(C(F)(F)C(=O)NCCC(=O)NS(C)(=O)=O)cc1", 0.447),
    ("CCOC1CC(NC2CC(c3ccc(F)cc3)C2)C12CCC2 (stereo not given)", 3.63),
]

Looking up Cc1ccccc1C(=O)N(Cc1cccc(F)c1)c1ccc(CC(=O)NCCN2CCCCC2)cc1 , I found its IC50 recorded as 2.75

Looking up CC(C)O[C@@H]1CCN(C[C@H](O)c2ccc(C(F)(F)F)cc2)C1 , I found its IC50 recorded as 3.09

Looking up COc1ccc(CC(=N)Nc2cc3cc(OC)c(OC)cc3c(Cc3ccc(OC)c(OC)c3)n2)cc1OC , I found its IC50 recorded as 3.72

Looking up CCC(C)NCC(O)Cn1c(-c2ccccc2)c(-c2ccccc2)c2cc(C)ccc21 (stereo not given) , I found its IC50 recorded as 2.57
